Where a SMILES comes first, the peptide text is derived from it.
Listed next: entries and their corresponding logP.
metric-name: logP

>>> result("CC(C)CC(N)C(=O)NC(C(=O)NCC(=O)NC(C(=O)NC(Cc1ccccc1)C(=O)O)C(C)O)C(C)C (stereo not given) (H-LVGTF-OH; configuration not given here)")
-1.18
>>> result("CCOCCOCCOCCCCCNC(=O)NC12CC3CC(CC(C3)C1)C2")
3.6
>>> result("Cc1ccccc1Nc1ccncc1S(=O)(=O)NC(=NC#N)NC(C)C")
1.67
>>> result("CC(CO)CCNc1ncnc2nc[nH]c12 (stereo not given)")
1.16
>>> result("CCNCc1ccc(C)cc1")
2.38
>>> result("COC(=O)C(C)NP(=O)(OCC1C=CC(n2cc(C)c(=O)[nH]c2=O)O1)Oc1cccc(Cl)c1 (stereo not given)")
1.42
>>> result("CCCN(CCCCC(NC(C)=O)C(=O)NCc1ccccc1)C(=O)N(CCCl)N=O (stereo not given)")
1.99
>>> result("COC(=O)C1=C(C)NC(C)=C(C(=O)OCC=Cc2ccccc2)C1c1cccc([N+](=O)[O-])c1 (stereo not given)")
5.69
>>> result("COCCNc1[nH]cnc2ncnc1-2")
0.42
>>> result("CCCCOC1C(=O)NC(=O)NC1=[N+]=[N-] (stereo not given)")
-0.55

----------
Where a SMILES comes first, the peptide text is derived from it.
Listed next: entries and their corresponding logP.
metric-name: logP

>>> result("NC(=O)c1cccc(Cn2cccn2)c1")
0.71
>>> result("CCC(C)C(N)C(=O)NC(C(=O)NC(C(=O)NC(C(=O)NCC(=O)O)C(C)CC)C(C)CC)C(C)CC (stereo not drawn) (H-IIIIG-OH; configuration not given here)")
-0.97
>>> result("CN(C)c1cc[n+]([O-])cc1")
-0.9
>>> result("OCC1OC(Oc2ccc3cc(Br)ccc3c2)C(O)C(O)C1O (stereo not drawn)")
1.97
>>> result("CCCCOCCCNc1[nH]cnc2ncnc1-2")
2.22
>>> result("Cc1cn(C2C=CC(COP3(=O)OCc4cc(Cl)ccc4O3)O2)c(=O)[nH]c1=O (stereo not drawn)")
0.88
>>> result("CC(=O)Nc1ccc(S(=O)(=O)Nc2nc(C)c(C)o2)cc1")
0.46
>>> result("Clc1ccc(/C=N/OCCc2nc(-c3ccccc3)n[nH]2)cc1")
2.83
>>> result("C=CC(=O)OCCCCCC")
3.33
>>> result("CN1CCN(Cc2cnccc2Cl)C1=N[N+](=O)[O-]")
0.26
>>> result("CCC(C)C(NC(=O)C(N)CC(C)C)C(=O)NC(C(=O)NCC(=O)NC(C)C(=O)O)C(C)CC (stereo not drawn) (H-LIIGA-OH; configuration not given here)")
-1.65
>>> result("O=S(=O)(NC(=S)N1CCCCC1)c1cnccc1NC1CCCCCC1")
4.15
>>> result("CC(=O)OCCOC(=O)C(C)c1cccc(C(=O)c2ccccc2)c1 (stereo not drawn)")
3.1
>>> result("C=C(Cl)CON=C(C)c1cccc(Oc2nc(OC)cc(OC)n2)c1C(=O)OC")
3.63
>>> result("O=C(O)c1ccccc1NC(=O)c1c(O)cccc1O")
3.52
>>> result("O[C@@H](c1cc(C(F)(F)F)nc2c(C(F)(F)F)cccc12)[C@H]1CCCCN1")
4.49
>>> result("CCCCNC1CCc2c(OC)cccc2C1C (stereo not drawn)")
3.73
>>> result("CON=C(C(=O)NC1C(=O)N2C(C(=O)OCc3oc(=O)oc3C)=CCSC12)c1csc(N)n1 (stereo not drawn)")
0.17
>>> result("C#CCOc1noc2c1CNCC2")
0.4
>>> result("Clc1ccc(C=NOCCc2nnc(-c3ccccc3)o2)cc1")
3.01
>>> result("CCNc1nc(N)nc(OC)n1")
0.89
>>> result("O=c1cc(CSc2nc3ccccc3[nH]2)occ1O")
1.51
>>> result("CC(C)C1(C)N=C(c2ncc(Br)cc2C(=O)O)NC1=O (stereo not drawn)")
1.19

----------
Listed next: entries and their corresponding logP.
metric-name: logP

>>> result("CN1CCCNCC1")
-0.4
>>> result("Cc1ccc2c(c1)C(=O)N(CCO[N+](=O)[O-])CO2")
2.41
>>> result("O=C1N=C(N2CCOCC2)CN1c1ccc(Cl)cc1")
1.5
>>> result("c1ccc2c(c1)OCC(Cc1nc3ccccc3[nH]1)O2 (stereo unspecified)")
3.29
>>> result("N#CN=C1NCCN1Cc1cnccc1Cl")
0.77
>>> result("NC1=NC(C2OCCc3ccccc32)CS1 (stereo unspecified)")
1.79
>>> result("Cc1cccc(C)c1OCC1CN=C(N)O1 (stereo unspecified)")
2
>>> result("Cc1ccc(N2CC(N3CCOCC3)=CC2=O)cc1")
1.4
>>> result("O=c1cc(-c2ccccc2)oc2ccc(Cl)cc12")
3.92
>>> result("CCC(C)C(NC(=O)C(C)N)C(=O)O (stereo unspecified)")
-2.6
>>> result("O=C(NP(=O)(N1CC1)N1CC1)c1ccc(F)cc1")
0.86
>>> result("CC(C)Nc1nc(=O)n(C(C)C)c(=O)n1C")
0.53
>>> result("COc1ccc(CCNCC(O)COc2ccc(-c3nc(-c4cccs4)c[nH]3)cc2C)cc1OC (stereo unspecified)")
4.8
>>> result("Cc1c(C)c2cc3ccoc3c(C)c2oc1=O")
3.25
>>> result("N#Cc1cccc(Cn2cccn2)c1")
1.74
>>> result("O=c1cc(-c2ccccc2)on1-c1ccc(Cl)cc1")
4.1
>>> result("CC1CN(CC2CN=C(N)O2)CC(C)O1 (stereo unspecified)")
0.16
>>> result("CCc1c(O)c(=O)ccn1CCCCO")
-0.28
>>> result("COc1ccc(CCNCC(O)COc2ccc(-c3nc(Br)c[nH]3)cc2Cl)cc1OC (stereo unspecified)")
4.3
>>> result("Cc1cccc2c1OP(=O)(OCC1C=CC(n3cc(C)c(=O)[nH]c3=O)O1)OC2 (stereo unspecified)")
0.71
>>> result("Clc1cccc(Oc2c(Cl)cc(Cl)cc2Cl)c1")
6.05
>>> result("CSc1cccc2nc(N)nc(N)c12")
1.81
>>> result("C#CC(C)(C)NCC(O)CON=C(C1CC1)C1CC1 (stereo unspecified)")
1.6
>>> result("COc1ccc(CCNCC(O)COc2ccc(-c3nc(C(C)C)c[nH]3)cc2)cc1OC (stereo unspecified)")
3.9
>>> result("C=CC1(C)C=C2CCC3C(C)(CO)CCCC3(C)C2CC1 (stereo unspecified)")
6.85
>>> result("OCCCCCNc1[nH]cnc2ncnc1-2")
0.72
>>> result("Cc1oc2nc3oc(=O)cc(C)c3cc2c1C")
2.25
>>> result("COc1ccc(C2Cc3c(C#N)cccc3N(CCN(C)C)C(=O)C2OC(C)=O)cc1 (stereo unspecified)")
3.3
>>> result("CCOP(=O)(OCC)C(C)(C)[N+]([O-])=Cc1c(OC)cc(OC)cc1OC")
1.03
>>> result("Nc1nnnn1-c1ccc2ccccc2c1")
2.08
>>> result("O=C1CN=C(c2ccc(F)cc2)c2ccccc2N1")
2.38
>>> result("Cc1cccc(C)c1Cc1cn[nH]c1")
3.6
>>> result("COC(=O)C(Cc1ccccc1)(Cc1ccccc1)S(=O)(=O)c1ccc([N+](=O)[O-])cc1")
4.46
>>> result("O=C1c2cc(O)ccc2OCN1CCO[N+](=O)[O-]")
1.63
>>> result("C=C(C)C(=O)OCCCCCCCC(C)C")
5.28
>>> result("O=C(O)CCCCON=C(c1cccc(C(F)(F)F)c1)c1cnccn1")
3.26
>>> result("CCCc1nc(Nc2ccccc2OC)nc(N2CCOCC2)n1")
3.59
>>> result("CC1CC(N)CN1c1cc2c(cc1F)c(=O)c(C(=O)O)cn2-c1ccc(F)cc1F (stereo unspecified)")
0.09
>>> result("CCCCc1cnc(C2=NC(C)(C(C)C)C(=O)N2)c(C(=O)O)c1 (stereo unspecified)")
1.99
>>> result("CCOC(=O)c1ccc(N=NN(C)C(=O)OCOC(C)=O)cc1")
3.44
>>> result("CON=C(C(=O)NC1C(=O)N2C(C(C)OC(=O)OC3CCCCC3)=CCSC12)c1csc(N)n1 (stereo unspecified)")
2.52
>>> result("CCN(CC)CC(=O)Nc1ccc(N)cc1")
1.09
>>> result("OCCCNc1[nH]cnc2ncnc1-2")
0.11
>>> result("CCN(CC)CCNC(=O)c1c(C)cccc1C")
2.22
>>> result("CCc1cccc(COC(=O)C2C(C=C(C)C)C2(C)C)c1 (stereo unspecified)")
6.51
>>> result("CCOCCCNc1[nH]cnc2ncnc1-2")
1.15
>>> result("Cc1cccc(C=[N+]([O-])C(C)(C)C)c1")
1.6
>>> result("COC(=O)C(C)NP(=O)(OCC1C=CC(n2cc(C)c(=O)[nH]c2=O)O1)Oc1ccc(Cl)cc1 (stereo unspecified)")
1.43
>>> result("COC1Cc2c(O)cc(O)cc2OC1c1ccc(O)c(O)c1 (stereo unspecified)")
1
>>> result("CC(=NNC(=O)c1ccc(N)cc1)c1cnccn1")
1.3
>>> result("CC(C)C1(C)N=C(c2ncc(-c3ccccc3)cc2C(=O)O)NC1=O (stereo unspecified)")
2.24
